ASSAY METHOD TEXT: soluble fraction after stress (log2 fold change); higher = more stays soluble; pooled small domains, quantitative proteomics
MEASUREMENT SETUP: stress: 50 degC
ENDPOINT NAME: soluble fraction (log2)
Reply with the value as a number alone.

HMNPLLSAYLAEVERGLQGLTAGRRRLVLRELEAHLLDEAEARGLLTEEDMRALLMEKEPPERLAQEIAQ: -0.0936

Moving on to another sequence below.
Query string: Fill in: soluble fraction (log2) of `HMSKISKENEQQVIQIVQTLLLNVQDKSLITTQILNEKINLAVSLDTKYKENLDRDYIIEELIRRYSVW` is ___
Result string: -1.12

---

ASSAY METHOD TEXT: soluble fraction after stress (log2 fold change); higher = more stays soluble; pooled small domains, quantitative proteomics
MEASUREMENT SETUP: stress: 50 degC
ENDPOINT NAME: soluble fraction (log2)

HMEAPMPIFWRPQFRIGHDDIDADHRYLILLINTVELVLRFPDDPRNVELALTELRRYAEDHFEREER: -0.161

Query string: Fill in: soluble fraction (log2) of `HMIISMKKTATKEQIAHVRELIEGMGYKAHMSVGAERVIFGAIGDERGKERLVSLEAQPGVEKVIPIL` is ___
Result string: 0.255

Query string: Fill in: soluble fraction (log2) of `HMEEAQWEFKWENTDSAEIHGPHSSSEMLKWQENSFFAKGVYVRKVGGDTTDFTDGKRIDFDLY` is ___
Result string: -0.822

---

ASSAY METHOD TEXT: soluble fraction after stress (log2 fold change); higher = more stays soluble; pooled small domains, quantitative proteomics
MEASUREMENT SETUP: stress: 50 degC
Mark True for reported soluble fraction (log2) of -0.4 or greater; mark False for anything smaller.

Below are worked cases with known answers.
HMKTPRKVFTVLIRNTEYDVYDIDGKEHQGYNDTPKTWWLYHSERLPEGMIPPIDSDSWKPYSVGT: False
HMETPDLTQLNPILDEYRGQKGAVIPVLQKAQKIYGFLPPEVLRRIAAGMRVPLSKIYGVATFYSQFY: True

Query string: # bool: soluble fraction (log2) of `HMGYSDEIGEFIKKLRTENHLTQKEFADKYGVTYQAVSKWENGKNLPDMSLIKQMSEDFNIGIDELLDGEK` >= -0.4
Result string: True

Query string: # bool: soluble fraction (log2) of `HMSLSNMIGKNIQWTHVTKTKDAEGNPKTNSETFAGNVRGVKVLNGKPMVVAQDAKGKLHEVEVSEIEAIA` >= -0.4
Result string: True

Query string: # bool: soluble fraction (log2) of `HMSTNDIFISGDKLVLKNTTGQMDVFDMAGRKVLSSTNNVSEMNVSSLPKGVYVVSASIGGSKMKAKVYK` >= -0.4
Result string: True

Query string: # bool: soluble fraction (log2) of `HMRVDDITDTILNVLKEQGGFISVTDKSSPETINKLFGVSKKTYKKAIGAIYRKKLIIIEDDGIRLNS` >= -0.4
Result string: False

Query string: # bool: soluble fraction (log2) of `HMALSVRNRMSDLLRMLGDGEFHRFENLFSLEEGRHGIVVTFLAMLELAKEQLVEISQGESLAPIYLKSLA` >= -0.4
Result string: False

Query string: # bool: soluble fraction (log2) of `HMVLVKFEWTPPDARILVDDHPVEARDKEMELPEGTHHVQALAPRGSGYESTVTDIEVRQGMDPVRIAL` >= -0.4
Result string: True

Query string: # bool: soluble fraction (log2) of `HMHSRLEDIPGIGPRRRAMLLRHFGGLAELKAAGVEEIARVEGINMALAQRLWRALHGVPDPT` >= -0.4
Result string: True

Query string: # bool: soluble fraction (log2) of `HMTLDEDYFYYTLKAKEGYYRLYKKLGVDRKIIDSLNPNLKEMGLQVGMVIRVPKSQTSDLSVKNSLLVE` >= -0.4
Result string: False

Query string: # bool: soluble fraction (log2) of `HMQIVHKHLQLQPDQGALRAALYSHKAVVAEQVNEQGAINLEIKLAESDFLRLLKSSGLKLQDLVSLS` >= -0.4
Result string: True

Query string: # bool: soluble fraction (log2) of `HMDPFAYEVKVTDLAAGSSEIRTVYTEQGSFNIPSGMSGNLKIQVRSASMYDEVEPSDWYTIGEEDIN` >= -0.4
Result string: True

Query string: # bool: soluble fraction (log2) of `HMSLPNNLIEQLQDPEPKARRRAVRRLAATRDPSAIPLLRNVYLQDGDDRVRDAAEAALVQFRAMQHN` >= -0.4
Result string: True

---

ASSAY METHOD TEXT: soluble fraction after stress (log2 fold change); higher = more stays soluble; pooled small domains, quantitative proteomics
MEASUREMENT SETUP: stress: 50 degC
Mark condition met for reported soluble fraction (log2) of -0.5 or greater; mark condition not met for anything smaller.

Below are worked cases with known answers.
HMNNPISMQKLRQVIRLYGQGKGTKSINSMLGVSRNTIKKYLQVYHSSGINYESFLAMSDKELSAVFLV: condition met
HMVQVHEWTNKAGRTIKAKFVRGDAQSVTIFLGGRNFVLKIADLSEESQALARKLSAPPPPP: condition not met
HMDEFTIILEDAGSQKIAVIKEVRVLNSSLGLKEAKDLVDATPATIMEKADKATADKAKAAFEAAGAKVTI: condition met
HMSKTEEIAYTTFVKYLENKDIEEVYLGNNAKIKVILKDGREMITDNPRTADFKKDLLLHDIKVVEKT: condition met
HMKQESSEDLLNEVIDKVIDSNPDEKNRLLDGELKLVSFFMGQVMKETKGKANPGVINGLIKKKFNI: condition not met

Query string: # bool: soluble fraction (log2) of `HMRTITYSITPAHAGMSVERYLKQQHGYSTRTLVKLKHYPQGLQLNGQHARTVDLLQAGDTLAVTFLD` >= -0.5
Result string: condition not met

Query string: # bool: soluble fraction (log2) of `HMDNPVPVIITDQNFQPQLWKNVGVPTDTLFHELSAANQRKLENLMKTMIQTPLTDNGKISGYAFYSK` >= -0.5
Result string: condition met

Query string: # bool: soluble fraction (log2) of `HMAPSPEGAAILRESVESVARDQVDRVALTMTARGYTTAEIAAALMVDRSTISRRLYAMRDRYHAQQDNAQ` >= -0.5
Result string: condition met

Query string: # bool: soluble fraction (log2) of `HMDEWKRKELWDAIARLPKIQRMVVTMRTTENLPYKEIAKIMNISENSAKVNYHHAVEALKIFF` >= -0.5
Result string: condition not met

Query string: # bool: soluble fraction (log2) of `HMSILTELDIGDKVEVVAGPFKGIQANITRIEPVRKEVTVILLDAPYQLPVTVDADYLKIIQKS` >= -0.5
Result string: condition met

Query string: # bool: soluble fraction (log2) of `HMLEQEDMYGYQMIETLRERSEHSFDLKAGTLYPLLHALEQKGLITARDEASAAGRPRRYYHLTDAG` >= -0.5
Result string: condition met

Query string: # bool: soluble fraction (log2) of `HMSPPALAVQRDGSNVQISWPGAEEGWRLESSAEPSGAAWDLIAQNPTPVGGRWTVSLTEPTGRRFYRLVK` >= -0.5
Result string: condition met

Query string: # bool: soluble fraction (log2) of `HMRGPDLSKDFHEYISSQWMFFGRNAYQIAEQINKDTQLMSKYGKTTPSGVHYHIKQIQQEMEN` >= -0.5
Result string: condition met

Query string: # bool: soluble fraction (log2) of `HMNDTNEEAVLSIILKNPQATQGAIAKEVGASLSTVKRIMRNLQKSGKLRREGTNRNGSWVVTGQK` >= -0.5
Result string: condition met

---

ASSAY METHOD TEXT: soluble fraction after stress (log2 fold change); higher = more stays soluble; pooled small domains, quantitative proteomics
MEASUREMENT SETUP: stress: 50 degC
ENDPOINT NAME: soluble fraction (log2)
Reply with the value as a number alone.

Query string: Fill in: soluble fraction (log2) of `HMKDNPNETFERIAGKITRTLRSGPVRIQQLDLLFSESAGKVVDVLRAMAENGEVLIKDDTIQLNGNN` is ___
Result string: 0.0379

Query string: Fill in: soluble fraction (log2) of `HMSTANIVVPDVKGKTFEEAKKAIEAEGLTAKAEGDESGVVQKTSPSYGVSVESGSEVTLTLVKSDD` is ___
Result string: -0.0409

Query string: Fill in: soluble fraction (log2) of `HMLALVREQIERNVSNPTDEDIRKIRHDVMEVITRAGADAATVDIAIEIDSQKNILRAIATGATEL` is ___
Result string: -0.0114

Query string: Fill in: soluble fraction (log2) of `HMGSLVKLQSAAELHQAGRSAEAVPILLEVLATNPRLVDGWEILANALEKLGRLDEALAALKKTVALSPPG` is ___
Result string: -0.694

Query string: Fill in: soluble fraction (log2) of `HMSEIKDRLREARRNKGLSQAGLSKLLGVSQASIAAIESGRNKRPTNLVSIAKALDVSPYWLETGK` is ___
Result string: -0.124

Query string: Fill in: soluble fraction (log2) of `HMKPNEYVSGETFPYLGKNYRLKVLHGSENSVRLKGGYFITTISNRDSQLSTVKSLLEDWYQTHADK` is ___
Result string: 0.0439

Query string: Fill in: soluble fraction (log2) of `HMKGKITTNWVSLTSDLGWLRSELYSSGSVLEERISNEGLIELHLENFQNDLIKLLEVEGFDLIKE` is ___
Result string: -3.1

Cited source: the domain aggregation screens of Martell et al. (2025)
